# credit: patent US20200093852A1

Collected IC50 values appear next to each entry.
# Test target: Recombinant human active heparanase (Homo sapiens)
# Construct: Recombinant human active heparanase derived from Chinese hamster ovary cells; purchased R&D Systems; host or cells: Chinese hamster ovary cells
# Assay text: Heparanase enzyme inhibition assay (fondaparinux substrate, WST-1 detection)
# Type: biochemical
# Condition details: Table 4; read-out: IC50 heparanase inhibition by compounds of Formula 2-4
# Protocol: Recombinant human active heparanase derived from Chinese hamster ovary cells was from R&D Systems. […] The plates were washed three times with PBST, shaken dry, and stored for up to two weeks at 4° C. before use. […] Following initiation of the reaction by addition of fondaparinux, the plate was sealed with adhesive film and incubated at 37° C. for 20-24 h. Test compounds were dissolved and added to the assay at varying concentrations to calculate the level of inhibition.

Smiles str	IC50 / µM
COc1cc2nc(SCc3ccc(C(F)(F)F)cc3)n(CCNC(=O)c3cc4cc(-c5cccnc5)ccc4[nH]3)c(=N)c2cc1OC	2.89
COc1ccc(-c2ccc3[nH]c(C(=O)NCCn4c(=S)[nH]c5cc(OC)c(OC)cc5c4=N)cc3c2)cn1	4.2
COc1cc2nc(SC)n(CCNC(=O)c3cc4ccccc4[nH]3)c(=N)c2cc1OC	24.9
COc1cc2[nH]c(=S)n(CCNC(=O)c3cc4ccc(-c5cccnc5)cc4[nH]3)c(=N)c2cc1OC	3.1
COc1cc2[nH]c(=S)n(CCNC(=O)c3ccc(-c4ccccc4)[nH]3)c(=N)c2cc1OC	10.6
COc1cc2[nH]c(=S)n(CCNC(=O)c3cc4ccccc4[nH]3)c(=N)c2cc1OC	9
COc1cc2[nH]c(=S)n(CCNC(=O)c3cc4cc(-c5cccnc5)ccc4[nH]3)c(=N)c2cc1OC	1
COc1cc2nc(SCc3ccc(C(F)(F)F)cc3)n(CCNC(=O)c3cc4ccc(-c5cccnc5)cc4[nH]3)c(=N)c2cc1OC	5.9
COc1cc2[nH]c(=S)n(CCNC(=O)c3cc(-c4ccccc4)on3)c(=N)c2cc1OC	31.7
COc1cc2[nH]c(=S)n(CCNC(=O)c3c[nH]c4c(O)cccc34)c(=N)c2cc1OC	10.7
COc1cc2nc(SCc3ccc(OC(F)(F)F)cc3)n(CCNC(=O)c3cc4cc(-c5cccnc5)ccc4[nH]3)c(=N)c2cc1OC	5.7
COc1cc2nc(SCc3cccc(C(F)(F)F)c3)n(CCNC(=O)c3cc4ccc(-c5cccnc5)cc4[nH]3)c(=N)c2cc1OC	28
COc1cc2[nH]c(=S)n(CCNC(=O)c3c[nH]c4ccccc34)c(=N)c2cc1OC	7
COc1cc2[nH]c(=S)n(CCNC(=O)c3cc4cc(-c5ccc(C(=O)N6CCN(C)CC6)cc5)ccc4[nH]3)c(=N)c2cc1OC	2.8
COc1cc2[nH]c(=S)n(CCNC(=O)c3n[nH]c4ccccc34)c(=N)c2cc1OC	37

---

# Test target: Recombinant human active heparanase (Homo sapiens, UniProt Q9Y251)
# Construct: Recombinant human active heparanase derived from Chinese hamster ovary cells; purchased R&D Systems; host or cells: Chinese hamster ovary cells
# Sequence (Q9Y251 158-543 limits assumed): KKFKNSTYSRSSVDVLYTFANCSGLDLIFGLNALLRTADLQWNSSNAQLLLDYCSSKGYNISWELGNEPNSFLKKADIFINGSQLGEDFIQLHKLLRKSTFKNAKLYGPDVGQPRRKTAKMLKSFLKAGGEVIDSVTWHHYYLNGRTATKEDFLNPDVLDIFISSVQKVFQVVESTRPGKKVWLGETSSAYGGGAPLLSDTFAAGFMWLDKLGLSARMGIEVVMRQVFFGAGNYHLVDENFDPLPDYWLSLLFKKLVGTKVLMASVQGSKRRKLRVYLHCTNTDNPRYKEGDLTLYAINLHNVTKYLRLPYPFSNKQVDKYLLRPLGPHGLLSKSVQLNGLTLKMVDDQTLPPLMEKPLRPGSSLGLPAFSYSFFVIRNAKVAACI
# Sequence (Q9Y251 36-109 limits assumed): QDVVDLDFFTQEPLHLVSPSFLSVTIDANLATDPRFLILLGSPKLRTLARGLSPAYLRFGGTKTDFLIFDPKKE
# Assay text: Heparanase enzyme inhibition assay (fondaparinux substrate, WST-1 detection)
# Type: biochemical
# Condition details: IC50 heparanase inhibition by compounds of Formula 1, Table 3

Smiles str	Test target	IC50 / µM
COc1cc2nc(-c3cccc4cccnc34)nc(NCCc3ccccc3)c2cc1OC	Recombinant human active heparanase (Homo sapiens, UniProt Q9Y251)	6.1
